# Assay: Fluorescence quantum yields
# Assay type: physicochemical
# Applied Conditions: in aqueous 2% SDS

{"Compound": "CCCCCCCCCCCCCCCCCC[n+]1ccc(-c2c3nc(c(-c4cc[n+](C)cc4)c4ccc([nH]4)c(-c4cc[n+](C)cc4)c4nc(c(-c5cc[n+](C)cc5)c5ccc2[nH]5)C=C4)C=C3)cc1.Cl.Cl.[Cl-].[Cl-].[Cl-].[Cl-]", "ΦF (SDS), fluorescence quantum yield": 0.024}
{"Compound": "CCCCCCCCCCCCCC[n+]1ccc(-c2c3nc(c(-c4cc[n+](C)cc4)c4ccc([nH]4)c(-c4cc[n+](C)cc4)c4nc(c(-c5cc[n+](C)cc5)c5ccc2[nH]5)C=C4)C=C3)cc1.Cl.Cl.[Cl-].[Cl-].[Cl-].[Cl-]", "ΦF (SDS), fluorescence quantum yield": 0.022}
{"Compound": "CCCCCCCCCC[n+]1ccc(-c2c3nc(c(-c4cc[n+](C)cc4)c4ccc([nH]4)c(-c4cc[n+](C)cc4)c4nc(c(-c5cc[n+](C)cc5)c5ccc2[nH]5)C=C4)C=C3)cc1.Cl.Cl.[Cl-].[Cl-].[Cl-].[Cl-]", "ΦF (SDS), fluorescence quantum yield": 0.026}
{"Compound": "CCCCCCCCCCCCCCCCCCCCCC[n+]1ccc(-c2c3nc(c(-c4cc[n+](C)cc4)c4ccc([nH]4)c(-c4cc[n+](C)cc4)c4nc(c(-c5cc[n+](C)cc5)c5ccc2[nH]5)C=C4)C=C3)cc1.Cl.Cl.[Cl-].[Cl-].[Cl-].[Cl-]", "ΦF (SDS), fluorescence quantum yield": 0.029}
{"Compound": "C[n+]1ccc(-c2c3nc(c(-c4cc[n+](C)cc4)c4ccc([nH]4)c(-c4cc[n+](C)cc4)c4nc(c(-c5cc[n+](C)cc5)c5ccc2[nH]5)C=C4)C=C3)cc1.Cc1ccc(S(=O)(=O)[O-])cc1.Cc1ccc(S(=O)(=O)[O-])cc1.Cc1ccc(S(=O)(=O)[O-])cc1.Cc1ccc(S(=O)(=O)[O-])cc1 [Porphyrin T4MPyP, reference compound]", "ΦF (SDS), fluorescence quantum yield": 0.031}
